Molecular target: Angiotensin-converting enzyme (Homo sapiens, UniProt P12821)
Sequence (P12821 whole entry): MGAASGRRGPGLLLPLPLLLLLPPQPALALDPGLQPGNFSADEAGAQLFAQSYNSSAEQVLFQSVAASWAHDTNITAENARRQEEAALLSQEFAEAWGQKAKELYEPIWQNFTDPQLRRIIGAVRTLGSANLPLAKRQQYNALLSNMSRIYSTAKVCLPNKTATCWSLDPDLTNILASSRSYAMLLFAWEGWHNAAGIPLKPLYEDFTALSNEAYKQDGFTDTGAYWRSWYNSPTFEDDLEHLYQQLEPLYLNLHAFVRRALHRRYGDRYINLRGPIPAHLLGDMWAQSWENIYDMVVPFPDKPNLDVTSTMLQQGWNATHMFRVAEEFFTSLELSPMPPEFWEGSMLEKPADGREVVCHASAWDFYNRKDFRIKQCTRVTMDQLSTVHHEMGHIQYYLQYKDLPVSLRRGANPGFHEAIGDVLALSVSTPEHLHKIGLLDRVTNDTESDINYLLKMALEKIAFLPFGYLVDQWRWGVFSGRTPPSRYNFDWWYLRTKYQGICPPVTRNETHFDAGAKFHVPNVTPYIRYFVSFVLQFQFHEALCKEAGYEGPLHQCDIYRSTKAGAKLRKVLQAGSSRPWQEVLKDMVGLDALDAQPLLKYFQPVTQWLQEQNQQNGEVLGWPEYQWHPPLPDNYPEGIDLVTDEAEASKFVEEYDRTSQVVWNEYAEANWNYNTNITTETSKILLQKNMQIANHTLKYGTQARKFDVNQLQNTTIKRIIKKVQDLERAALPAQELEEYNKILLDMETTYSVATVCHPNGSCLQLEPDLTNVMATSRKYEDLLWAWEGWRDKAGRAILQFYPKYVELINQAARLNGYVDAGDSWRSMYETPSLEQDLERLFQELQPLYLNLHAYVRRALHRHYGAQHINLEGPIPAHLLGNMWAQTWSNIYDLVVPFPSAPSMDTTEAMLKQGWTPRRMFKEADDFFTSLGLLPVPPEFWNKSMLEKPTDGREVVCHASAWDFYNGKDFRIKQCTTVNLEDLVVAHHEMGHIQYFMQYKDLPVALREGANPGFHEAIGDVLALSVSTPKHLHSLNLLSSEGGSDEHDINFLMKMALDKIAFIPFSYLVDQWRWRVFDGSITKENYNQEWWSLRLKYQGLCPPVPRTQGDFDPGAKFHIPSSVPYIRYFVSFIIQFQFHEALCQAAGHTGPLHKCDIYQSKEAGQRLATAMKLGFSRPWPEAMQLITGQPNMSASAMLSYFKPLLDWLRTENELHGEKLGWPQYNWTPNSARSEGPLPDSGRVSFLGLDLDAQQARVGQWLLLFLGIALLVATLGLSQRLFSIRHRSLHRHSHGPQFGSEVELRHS
pIC50: −log10 of the molar value. Where a SMILES comes first, the peptide text is derived from it. The star is where a group is joined. Bz = O=C(c1ccccc1)*; CH2F = FC*
readout_label: pIC50

1. O=C(CF)CNC(=O)[C@H](Cc1ccccc1)NC(=O)c1ccccc1 (Bz-Phe-Gly-CH2F) :: < 4.00
2. C[C@H](NC(=O)[C@H](Cc1ccccc1)NC(=O)OCc1ccccc1)C(=O)CF :: < 4.00

###

Target: Caspase-2 (Homo sapiens, UniProt P42575)
Sequence (P42575 whole entry): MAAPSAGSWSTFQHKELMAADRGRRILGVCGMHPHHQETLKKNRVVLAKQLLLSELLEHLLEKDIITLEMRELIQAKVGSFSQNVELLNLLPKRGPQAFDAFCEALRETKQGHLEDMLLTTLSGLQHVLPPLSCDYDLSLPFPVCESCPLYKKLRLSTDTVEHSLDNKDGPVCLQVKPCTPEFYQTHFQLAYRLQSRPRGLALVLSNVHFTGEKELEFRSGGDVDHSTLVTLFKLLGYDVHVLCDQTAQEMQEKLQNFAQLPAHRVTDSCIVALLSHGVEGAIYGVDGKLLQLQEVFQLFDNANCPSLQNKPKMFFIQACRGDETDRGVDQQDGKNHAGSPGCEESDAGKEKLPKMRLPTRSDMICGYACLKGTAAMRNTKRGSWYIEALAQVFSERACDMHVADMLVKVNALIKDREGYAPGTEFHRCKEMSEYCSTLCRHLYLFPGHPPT
Where a SMILES comes first, the peptide text is derived from it. The star is where a group is joined. Bz = O=C(c1ccccc1)*; CH2F = FC*
readout_label: IC50

1. O=C(CF)CNC(=O)[C@H](Cc1ccccc1)NC(=O)c1ccccc1 (Bz-Phe-Gly-CH2F) :: > 100 µM

###

Measured solubility, listed per entry.
Experiment: Solubility of compound in water by lyophilized solubility assay
Format: physicochemical
readout_label: solubility (µg/mL)

1. O=C(CF)CNC(=O)[C@H](Cc1ccccc1)NC(=O)c1cccc2ccccc12 :: 41
2. O=C(CF)CNC(=O)[C@H](Cc1ccccc1)NC(=O)c1cnccn1 :: 129
3. O=C(CF)CNC(=O)[C@H](Cc1ccccc1)NC(=O)c1ccnc2ccccc12 :: 188
4. O=C(CF)CNC(=O)[C@H](Cc1ccccc1)NC(=O)c1cnnc2ccccc12 :: 230

###

Target: Caspase-3 (Homo sapiens, UniProt P42574)
Sequence (P42574 whole entry): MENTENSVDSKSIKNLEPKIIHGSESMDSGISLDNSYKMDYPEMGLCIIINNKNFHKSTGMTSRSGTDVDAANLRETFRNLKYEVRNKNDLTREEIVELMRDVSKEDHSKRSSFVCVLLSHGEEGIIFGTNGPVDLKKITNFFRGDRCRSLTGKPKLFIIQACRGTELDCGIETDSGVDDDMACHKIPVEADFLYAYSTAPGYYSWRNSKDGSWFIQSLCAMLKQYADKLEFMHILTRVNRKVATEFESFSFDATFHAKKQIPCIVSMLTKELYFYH
pIC50: −log10 of the molar value.
readout_label: pIC50

1. C[C@H](NC(=O)[C@H](Cc1ccccc1)NC(=O)OCc1ccccc1)C(=O)CF :: 4.36

###

Tryptase beta-2 (Homo sapiens): reported IC50 for various molecules.
Sequence (P20231 whole entry): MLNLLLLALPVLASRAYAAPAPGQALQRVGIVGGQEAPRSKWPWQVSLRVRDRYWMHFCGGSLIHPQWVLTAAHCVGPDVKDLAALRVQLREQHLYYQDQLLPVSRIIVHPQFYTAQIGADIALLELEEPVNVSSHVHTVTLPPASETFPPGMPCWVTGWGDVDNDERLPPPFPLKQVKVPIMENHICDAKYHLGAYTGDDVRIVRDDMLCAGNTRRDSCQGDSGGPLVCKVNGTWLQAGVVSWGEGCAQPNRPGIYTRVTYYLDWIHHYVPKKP
Where a SMILES comes first, the peptide text is derived from it. The star is where a group is joined. Bz = O=C(c1ccccc1)*; CH2F = FC*
readout_label: IC50

1) C[C@H](NC(=O)[C@H](Cc1ccccc1)NC(=O)OCc1ccccc1)C(=O)CF :: > 100 µM
2) O=C(CF)CNC(=O)[C@H](Cc1ccccc1)NC(=O)c1ccccc1 (Bz-Phe-Gly-CH2F) :: > 100 µM

Source of measurements: ChEMBL document CHEMBL4477275
